- measured-target: T1, ECF11_3726
- T1 chain: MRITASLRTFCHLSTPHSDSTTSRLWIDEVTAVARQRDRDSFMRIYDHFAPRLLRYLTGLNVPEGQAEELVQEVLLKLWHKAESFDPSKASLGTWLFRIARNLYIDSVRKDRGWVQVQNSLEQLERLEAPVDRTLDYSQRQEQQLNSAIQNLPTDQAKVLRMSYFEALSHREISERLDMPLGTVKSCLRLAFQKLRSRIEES
reported-property: fold repression

[[record]]
binder = "AS03_1198 (protein) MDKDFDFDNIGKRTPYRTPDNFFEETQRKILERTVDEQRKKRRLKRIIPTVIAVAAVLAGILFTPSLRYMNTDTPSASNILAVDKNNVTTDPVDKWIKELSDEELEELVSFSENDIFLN"
reported_property = "fold repression"
measured_result = 1.38

[[record]]
binder = "AS16_3622 (protein) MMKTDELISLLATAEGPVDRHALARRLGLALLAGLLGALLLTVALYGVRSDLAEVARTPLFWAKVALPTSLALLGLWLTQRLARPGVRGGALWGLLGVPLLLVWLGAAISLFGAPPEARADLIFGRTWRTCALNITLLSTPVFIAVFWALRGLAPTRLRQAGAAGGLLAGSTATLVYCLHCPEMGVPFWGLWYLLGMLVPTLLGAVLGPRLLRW"
reported_property = "fold repression"
measured_result = 6.84

[[record]]
binder = "AS27_1331 (protein) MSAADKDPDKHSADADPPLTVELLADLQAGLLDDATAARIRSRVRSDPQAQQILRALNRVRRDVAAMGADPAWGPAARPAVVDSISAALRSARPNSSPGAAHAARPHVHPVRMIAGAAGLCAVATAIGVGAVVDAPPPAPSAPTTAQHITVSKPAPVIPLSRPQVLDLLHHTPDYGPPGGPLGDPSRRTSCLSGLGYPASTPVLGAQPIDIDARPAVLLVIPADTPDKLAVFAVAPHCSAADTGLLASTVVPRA"
reported_property = "fold repression"
measured_result = 5.02

